# Target System: mPGES-1 (Homo sapiens)
# Sequence (O14684 whole entry): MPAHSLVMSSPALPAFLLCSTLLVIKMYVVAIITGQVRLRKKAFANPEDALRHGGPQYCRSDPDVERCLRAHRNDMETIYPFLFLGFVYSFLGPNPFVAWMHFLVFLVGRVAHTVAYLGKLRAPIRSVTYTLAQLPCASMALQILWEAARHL
# Protocol Notes: A549 cell-based assay (PGE2 formation, IL-1β stimulated, 50% human serum)
# Design: host or cells: A549 cells
# Condition Parameters: A549 cells, IL-1β 5 ng/ml, 20-24 h, Table B, read-out: mPGES-1 inhibitory effect, IC50, cell assay
Checkbox rule: IC50 lower than 20 nM = MET; IC50 not lower than 20 nM = NOT MET.

Use the examples below as a reference point.
Cn1c(Nc2c(Cl)ccc(CNC(=O)C(C)(C)C)c2Cl)nc2cc(C(=O)N[C@H]3CC[C@H](C(F)(F)F)CC3)c(N3CCC(F)CC3)nc21 : MET
Cn1c(Nc2c(Cl)ccc(CNC(=O)C(C)(C)C)c2Cl)nc2cc(C(=O)NCC(F)(F)F)c(N3CCC(C(F)(F)F)CC3)nc21 : MET
CN(CC(F)F)c1nc2[nH]c(Nc3c(Cl)ccc(CNC(=O)C(C)(C)C)c3Cl)nc2cc1C(=O)NCC(F)F : NOT MET
CC(C)(C)C(=O)NCc1ccc(Cl)c(Nc2nc3cc(C(=O)N[C@H]4CC[C@H](C(F)(F)F)CC4)c(N4CC5CC5C4)nc3[nH]2)c1Cl (stereo partly drawn) : MET
Cn1c(Nc2c(Cl)ccc(CNC(=O)C(C)(C)C)c2Cl)nc2cc(C(=O)NC(Cc3ccccc3)C(F)(F)F)c(N3CCC(C(F)(F)F)CC3)nc21 (stereo not drawn) : NOT MET

I'd appreciate it if you could check whether `CN(C)C(=O)Cn1c(Nc2c(Cl)ccc(CNC(=O)C(C)(C)C)c2Cl)nc2cc(C(=O)N[C@H]3CC[C@H](C(F)(F)F)CC3)c(N3CCC(C(F)(F)F)CC3)nc21` has IC50 smaller than 20 nM.
NOT MET

---

Each item that follows carries a reported pIC50.
# Target System: UniProtKB O14684
# Protocol Notes: A549 cell-based assay (PGE2 formation, IL-1β stimulated, 50% human serum)
# Set-up: host or cells: A549 cells
# Condition Parameters: A549 cells, IL-1β 5 ng/ml, 20-24 h, Table B, read-out: mPGES-1 inhibitory effect, IC50, cell assay
# Procedure: Although the enzymatic assay is a high throughput assay the disadvantage is that it uses a recombinant protein which is not in its natural environment. Accordingly a cellular assay was established in which a cell line of human origin (A549) expressing the mPGES-1 protein was used. […] Concentrations of PGE2 in the cell free medium (10 μl) were measured using a commercially available HTRF kit from Cisbio (as described above). […]
Hey, just a heads up that pIC50 is the negative log base 10 of the concentration in molar.

Cn1c(Nc2c(Cl)ccc(CNC(=O)C(C)(C)C)c2Cl)nc2cc(C(=O)N[C@H]3CC[C@H](C(F)(F)F)CC3)c(N3CCC(C(F)(F)F)CC3)nc21 [Example 30] : 9.00

# lookup: pIC50 of CN(CC(F)F)c1nc2[nH]c(Nc3c(Cl)ccc(CNC(=O)C(C)(C)C)c3Cl)nc2cc1C(=O)NC1CCC(F)(F)CC1 [Example 10]
8.10

# lookup: pIC50 of Cn1c(Nc2c(Cl)ccc(CNC(=O)C(C)(C)C(F)(F)F)c2Cl)nc2cc(C(=O)N[C@H]3CC[C@H](C(F)(F)F)CC3)c(N3CC[C@@H](F)C3)nc21 [Example 19]
8.22

# lookup: pIC50 of Cn1c(Nc2cc(CNC(=O)C3(C(F)(F)F)CC3)ccc2Cl)nc2cc(C(=O)N[C@H]3CC[C@H](C(F)(F)F)CC3)c(N3CCC(C(F)(F)F)CC3)nc21 [Example 1]
8.15

# lookup: pIC50 of Cn1c(Nc2c(Cl)ccc(CNC(=O)C(C)(C)C)c2Cl)nc2cc(C(=O)NCc3ncccc3C(F)(F)F)c(N3CCC(C(F)(F)F)CC3)nc21 [Example 43]
8.22

# lookup: pIC50 of CN(c1nc2c(cc1C(=O)N[C@H]1CC[C@H](C(F)(F)F)CC1)nc(Nc1c(Cl)ccc(CNC(=O)C(C)(C)C)c1Cl)n2C)C1COC1 [Example 20]
8.52

The reported measurements were obtained from patent US8486968B2.
